Values from the supplement of paper PMC6757056

B1: library; a variant is named by its letters at N, in order (parent)
chain: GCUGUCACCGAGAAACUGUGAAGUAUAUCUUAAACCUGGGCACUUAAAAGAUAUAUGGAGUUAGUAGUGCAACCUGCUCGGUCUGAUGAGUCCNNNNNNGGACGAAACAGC

# Variants of: B1
# Assay name: normalized RNA/DNA level without ligand (relative to sTRSVctl = 100) (log10 (% of sTRSVctl)); HEK293T; ligand: cyclic di-GMP (c-di-GMP-II aptamer); higher = less ribozyme self-cleavage, higher mRNA level
# Details: reporter: mCherry (pCS4076), ligand present: no
Outcome measure: normalized RNA/DNA level without ligand (log10)

INSERT INTO results (mutation_spec, assay_result) VALUES
  ('ACGACG', 1.57),
  ('GAAACU', 1.63),
  ('CCUCAU', 1.65),
  ('GGCCUG', 1.82),
  ('UGCACU', 1.74),
  ('GUUACU', 1.75),
  ('CGGAUG', 1.64),
  ('AACGGG', 1.51),
  ('ACAGGC', 1.5),
  ('CAUAAC', 1.62),
  ('AAGACA', 1.55),
  ('AAGCGA', 1.44),
  ('GACUGC', 1.7),
  ('UAAGUU', 1.58),
  ('GGUGUU', 1.63),
  ('UUUAUC', 1.74),
  ('CCGUUA', 1.36),
  ('UGGAGU', 1.59),
  ('ACAUCU', 1.6),
  ('GUCCCC', 1.76),
  ('GGUAGC', 1.67),
  ('AGCCAG', 1.68),
  ('CCUUUC', 1.7),
  ('AUUCAG', 1.59),
  ('UCUACU', 1.7),
  ('UAACAA', 1.7),
  ('UUUGAU', 1.65),
  ('CUCGAC', 1.71),
  ('UAACUG', 1.73),
  ('AAUCCG', 1.83),
  ('CUGGCC', 1.8),
  ('UUUUUA', 1.77),
  ('UUGGGU', 1.68),
  ('AGGAUA', 1.34),
  ('GAGCCA', 1.79),
  ('CCACAA', 1.51),
  ('GGCUCC', 1.88),
  ('GACCCG', 1.78),
  ('UUCGAC', 1.66),
  ('UCCUGA', 1.69),
  ('UGUGCU', 1.71),
  ('UUUCAU', 1.72),
  ('UUGAGC', 1.73),
  ('ACUAAA', 1.41),
  ('CGAACG', 1.75),
  ('CGCGAG', 1.74),
  ('AAAAGA', 1.36),
  ('ACCGAU', 1.48),
  ('CCGGGU', 1.69),
  ('CCGUGC', 1.58),
  ('UUCGGA', 1.58),
  ('UUCAGU', 1.75),
  ('CAAAUU', 1.45),
  ('GGUACC', 1.82),
  ('UUCGCA', 1.79),
  ('CUCUGG', 1.81),
  ('ACUGCU', 1.62),
  ('UUAAUA', 1.64),
  ('UGCAGG', 1.75),
  ('GUGCAA', 1.64),
  ('CAGAAG', 1.68),
  ('GCCGAC', 1.48),
  ('UGCCGU', 1.66),
  ('CGAUCU', 1.52),
  ('AGGUGG', 1.69),
  ('AAAUCA', 1.59),
  ('AGCGGG', 1.76),
  ('UGCGGC', 1.76),
  ('UAUAGA', 1.65),
  ('UCGUAC', 1.65),
  ('AAACCA', 1.57),
  ('GACGCG', 1.81),
  ('UCAUUG', 1.62),
  ('UCAGUG', 1.67),
  ('UGCUGA', 1.6),
  ('UAAGGU', 1.58),
  ('AUGUCA', 1.59),
  ('CGCUAA', 1.22),
  ('CCAGAC', 1.63),
  ('UCUUUU', 1.74),
  ('UCGGGU', 1.64),
  ('CGCAAC', 1.62),
  ('GACUGU', 1.65),
  ('UAAGGG', 1.58),
  ('CUUUGU', 1.78),
  ('CACAAU', 1.47),
  ('AGGCGA', 1.56),
  ('UGGGCA', 1.84),
  ('AGAGGA', 1.4),
  ('AAGGUU', 1.59),
  ('GCCGGA', 1.55);
